tested on: redroot pigweed (Amaranthus retroflexus); experiment: Test G Post-Emergence Protocol; assay type: in vivo; settings: Amaranthus retroflexus, post-emergence, 312 h, 62.5 g ai/ha, evaluated after 13 days, read-out: Pigweed, Redroot damage rating (100=total damage to plant; 0=no damage to plant)
Readings of pest or weed control at 62.5 g/ha for the listed compounds
Hi! Could you send only the number? It should be in %, unit omitted.

See these solved cases before continuing.
>>> recorded_result("CCc1nccc(NC(=O)[C@@H]2C(=O)N(C)C[C@H]2c2ccc(C(F)(F)F)cc2)c1Cl (racemic) [Compound 1538]")
0
>>> recorded_result("CN1C[C@H](c2ccc(C(F)(F)F)cc2)[C@@H](C(=O)Nc2ncccc2C#N)C1=O (racemic) [Compound 1433]")
0
>>> recorded_result("CN1C[C@@H](c2ccc(C(F)(F)F)cc2)[C@H](C(=O)Nc2nnc(C(F)(F)F)o2)C1=O (racemic) [Compound 1604]")
0
>>> recorded_result("Cc1cc(NC(=O)[C@@H]2C(=O)N(C)C[C@H]2c2ccc(C(F)(F)F)cc2)on1 (racemic) [Compound 1579]")
0
>>> recorded_result("CN1C[C@H](c2ccc(C(F)(F)F)cc2)[C@@H](C(=O)Nc2cccnc2F)C1=O [Compound 1396]")
70

Test item CN1C[C@@H](c2ccc(C(F)(F)F)cc2)[C@H](C(=O)Nc2cccnn2)C1=O (racemic) [Compound 1577] ; redroot pigweed (Amaranthus retroflexus); reported pest or weed control at 62.5 g/ha was 0

Test item CN1C[C@@H](c2ccc(C(F)(F)F)cc2)[C@H](C(=O)Nc2ccsc2)C1=O (racemic) [Compound 1611] ; redroot pigweed (Amaranthus retroflexus); reported pest or weed control at 62.5 g/ha was 0

###

tested on: giant foxtail (Setaria faberii); test: Test A preemergence; type: in vivo; details: Setaria faberi, pre-emergence, 240 h, 500 g ai/ha, preemergence; 0 to 100 scale where 0 is no effect and 100 is complete control; read-out: Foxtail, Giant plant response rating
property: pest or weed control at 500 g/ha
Remember to put the unit after the number in your answer.

The compound identified as CN1CC[C@H](c2ccc(C(F)(F)F)cc2)[C@@H](C(=O)Nc2cccc(Cl)c2F)C1=O registered its pest or weed control at 500 g/ha at 90%

The compound identified as CN1C[C@H](c2cc(C(F)F)cs2)[C@@H](C(=O)Nc2ccccc2F)C1=O registered its pest or weed control at 500 g/ha at 100%

The compound identified as Cc1cc(F)cc([C@H]2CNC(=O)[C@@H]2C(=O)Nc2cccc(F)c2C)c1 registered its pest or weed control at 500 g/ha at 90%

The compound identified as Cc1cc([C@H]2CN(C)C(=O)[C@@H]2C(=O)Nc2ccccc2S(C)(=O)=O)ccc1Br registered its pest or weed control at 500 g/ha at 90%

###

tested on: giant foxtail (Setaria faberii); assay: Test A preemergence; format: in vivo; conditions: Setaria faberi, pre-emergence, 240 h, Preemergence, 31 g ai/ha; 0 to 100 scale (0 no effect, 100 complete control); read-out: Plant response rating, Foxtail, Giant
property: pest or weed control at 31 g/ha (%)
Hi! Could you send only the number? It should be in %, unit omitted.

See these solved cases before continuing.
>>> recorded_result("CSc1ccccc1NC(=O)[C@H]1C(=O)N(C)C[C@@H]1c1ccc(C(F)(F)F)cn1 [Compound 1051]")
30
>>> recorded_result("CC(C)=CC1CNC(=O)C1C(=O)Nc1cccc(F)c1F (stereo not shown) [Compound 1012]")
0
>>> recorded_result("O=C(Nc1cccc(Cl)c1F)[C@H]1C(=O)N(C2CC2)CC[C@@H]1c1ccc(F)cc1 [Compound 1006]")
0

The compound identified as O=C1NCC[C@H](c2ccc(Cl)cc2)[C@H]1C(=O)Nc1cccc(F)c1F [Compound 795] registered its pest or weed control at 31 g/ha at 0
